- Assay system: mTRPM7 (Mus musculus, UniProt Q923J1)
- Construct: full-length mTRPM7 in pIRES2-EGFP, HEK 293 cells
- Sequence (Q923J1 whole entry): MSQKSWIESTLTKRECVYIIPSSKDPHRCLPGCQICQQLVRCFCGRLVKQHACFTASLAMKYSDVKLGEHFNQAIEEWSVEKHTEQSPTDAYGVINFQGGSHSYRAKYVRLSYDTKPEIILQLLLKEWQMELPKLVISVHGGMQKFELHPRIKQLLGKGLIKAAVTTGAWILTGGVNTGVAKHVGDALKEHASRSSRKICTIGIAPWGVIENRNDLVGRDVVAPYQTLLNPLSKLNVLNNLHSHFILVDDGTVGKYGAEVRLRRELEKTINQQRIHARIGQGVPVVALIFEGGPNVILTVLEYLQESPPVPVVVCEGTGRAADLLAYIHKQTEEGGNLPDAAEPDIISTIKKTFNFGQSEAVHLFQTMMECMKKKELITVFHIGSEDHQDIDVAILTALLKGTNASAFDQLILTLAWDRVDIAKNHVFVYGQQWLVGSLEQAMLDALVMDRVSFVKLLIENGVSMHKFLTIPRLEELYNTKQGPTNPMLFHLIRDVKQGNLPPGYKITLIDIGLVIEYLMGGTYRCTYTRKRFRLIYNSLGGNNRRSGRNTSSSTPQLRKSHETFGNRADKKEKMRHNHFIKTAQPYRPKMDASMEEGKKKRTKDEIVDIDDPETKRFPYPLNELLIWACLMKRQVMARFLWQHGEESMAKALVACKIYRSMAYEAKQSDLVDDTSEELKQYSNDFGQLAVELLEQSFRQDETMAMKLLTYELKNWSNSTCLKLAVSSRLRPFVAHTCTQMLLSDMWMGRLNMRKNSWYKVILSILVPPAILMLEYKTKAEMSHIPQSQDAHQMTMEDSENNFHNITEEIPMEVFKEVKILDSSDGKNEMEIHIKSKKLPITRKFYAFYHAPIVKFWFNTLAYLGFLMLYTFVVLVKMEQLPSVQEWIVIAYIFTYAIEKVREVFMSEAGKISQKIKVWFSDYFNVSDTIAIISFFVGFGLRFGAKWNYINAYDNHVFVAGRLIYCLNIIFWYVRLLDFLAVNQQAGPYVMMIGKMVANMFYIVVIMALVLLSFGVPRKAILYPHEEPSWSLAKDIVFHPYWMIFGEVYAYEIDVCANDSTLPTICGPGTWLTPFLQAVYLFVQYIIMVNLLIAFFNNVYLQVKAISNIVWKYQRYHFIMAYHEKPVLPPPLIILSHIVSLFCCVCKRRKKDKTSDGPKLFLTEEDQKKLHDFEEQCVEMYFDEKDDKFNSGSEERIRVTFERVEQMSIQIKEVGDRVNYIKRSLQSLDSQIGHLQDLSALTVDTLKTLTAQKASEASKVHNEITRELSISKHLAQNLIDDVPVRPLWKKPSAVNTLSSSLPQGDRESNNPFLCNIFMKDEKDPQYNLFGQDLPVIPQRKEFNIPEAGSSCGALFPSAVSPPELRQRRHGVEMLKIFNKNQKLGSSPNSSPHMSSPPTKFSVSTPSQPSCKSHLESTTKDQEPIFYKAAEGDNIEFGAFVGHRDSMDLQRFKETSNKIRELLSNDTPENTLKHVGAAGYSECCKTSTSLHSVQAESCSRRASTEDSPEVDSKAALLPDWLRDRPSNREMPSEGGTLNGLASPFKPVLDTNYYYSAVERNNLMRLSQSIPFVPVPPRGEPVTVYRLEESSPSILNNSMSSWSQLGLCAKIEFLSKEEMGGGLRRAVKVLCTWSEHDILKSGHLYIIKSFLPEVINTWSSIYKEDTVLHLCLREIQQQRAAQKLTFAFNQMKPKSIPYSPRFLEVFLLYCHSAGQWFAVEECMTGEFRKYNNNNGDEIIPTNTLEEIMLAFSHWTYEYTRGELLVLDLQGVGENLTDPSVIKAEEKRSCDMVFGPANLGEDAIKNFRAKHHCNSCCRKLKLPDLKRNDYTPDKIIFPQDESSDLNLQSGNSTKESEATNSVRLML
- Assay text: whole-cell patch clamp, intracellular dose response ([…] free Mg2+)
Reported endpoint: IC50 (µM)
Answers are plain numbers, in µM.

Q: Bench note: what IC50 did `Nc1ncnc2c1ncn2[C@@H]1O[C@H](COP(=O)(O)OP(=O)(O)OP(=O)(O)O)[C@@H](O)[C@H]1O` show?
Ans: 2930
